Reference source for all entries: patent US8946216B2

system: unphosphorylated Mouse ERK2 protein (inactive ERK2) (Mus musculus, UniProt P63085)
Sequence (P63085 whole entry): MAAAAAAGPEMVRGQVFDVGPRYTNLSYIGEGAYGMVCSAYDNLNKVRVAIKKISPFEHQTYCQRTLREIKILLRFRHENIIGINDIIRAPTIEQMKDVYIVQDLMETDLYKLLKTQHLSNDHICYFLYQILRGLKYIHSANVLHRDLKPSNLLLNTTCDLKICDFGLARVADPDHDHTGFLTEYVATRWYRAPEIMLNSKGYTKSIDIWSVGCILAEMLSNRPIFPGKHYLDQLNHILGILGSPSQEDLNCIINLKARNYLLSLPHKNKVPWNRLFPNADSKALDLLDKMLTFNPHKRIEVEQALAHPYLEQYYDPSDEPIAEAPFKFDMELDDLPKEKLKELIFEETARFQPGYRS
testDetails: Coupled ERK2 (cERK) assay, coupled MEK1/ERK2 IMAP
runConditions: 30 min preincubation with inactive ERK2, then activation by human MEK1; 30 μM ATP; fluorescence polarization; read-out: cERK2 IC50
Note to self: use T only for IC50 readings below 200 nM; a reading exactly at 200 nM still gets F.

# check: IC50 < 200 nM for O=C(Nc1ccc2[nH]nc(-c3ccncc3)c2c1)C1CN(Cc2ccc(Cl)cc2)CCO1 (centres unmarked) [Compound 27] F

Lab note: confirm whether the reported IC50 for this molecule is below 200 nM, equality not counting. molecule: O=C(Nc1ccc2[nH]nc(-c3ccncc3)c2c1)C1CNCCN1c1ccccc1 (centres unmarked) [Compound 54] T

Does the reported IC50 of the following molecule sit strictly below 200 nM? O=C(Nc1ccc2[nH]nc(-c3ccncc3)c2c1)C1CN(Cc2ccccc2Br)CCO1 (centres unmarked) [Compound 7] T

Hi there! Is IC50 for O=C(Nc1ccc2[nH]nc(-c3ccncc3)c2c1)C1CCCN(Cc2ccccc2Br)C1 (centres unmarked) [Compound 21] below 200 nM, do you know? T

Answer whether the molecule O=C(Nc1ccc2[nH]nc(-c3ccncc3)c2c1)C1CN(Cc2cc(F)ccc2F)CCO1 (centres unmarked) [Compound 51] has IC50 strictly less than 200 nM F

For N#Cc1ccccc1CN1CCOC(C(=O)Nc2ccc3[nH]nc(-c4ccncc4)c3c2)C1 (centres unmarked) [Compound 32] , is the recorded IC50 below the cut-off of 200 nM? F

Does the reported IC50 of the following molecule sit strictly below 200 nM? O=C(Nc1ccc2[nH]nc(-c3ccncc3)c2c1)C1CNCCO1 (centres unmarked) [Compound 16] F

I'd appreciate it if you could check whether O=C(Nc1ccc2[nH]nc(-c3ccncc3)c2c1)C1CN(Cc2ccccc2)CCS1 (centres unmarked) [Compound 36] has IC50 smaller than 200 nM. T

Threshold test, IC50 < 200 nM: O=C(Nc1ccc2[nH]nc(-c3ccncc3)c2c1)C1CN(Cc2ccc(Cl)cc2F)CCO1 (centres unmarked) [Compound 41] F

Is it true that IC50 reported for N#Cc1cccc(CN2CCOC(C(=O)Nc3ccc4[nH]nc(-c5ccncc5)c4c3)C2)c1 (centres unmarked) [Compound 31] is less than 200 nM? F

I'd appreciate it if you could check whether O=C(Nc1ccc2[nH]nc(-c3ccncc3)c2c1)C1CN(Cc2ccccc2)CCO1 (centres unmarked) [Compound 20] has IC50 smaller than 200 nM. T

Record COc1ccccc1CN1CCOC(C(=O)Nc2ccc3[nH]nc(-c4ccncc4)c3c2)C1 (centres unmarked) [Compound 35] : is its IC50 strictly below 200 nM? T

# check: IC50 < 200 nM for O=C(Nc1ccc2[nH]nc(-c3ccncc3)c2c1)C1CN(Cc2ccsc2)CCS1 (centres unmarked) [Compound 14] T
